Where these numbers come from: paper PMC10457970

# ASSAY: Cytotoxicity, CellTiter-Glo 2.0
# Assay type: cell-based
# MEASUREMENT_SETUP: human, TZM-bl cells
# Protocol: Cytotoxicity was determined by the CellTiter-Glo 2.0 Luminescent Cell Viability Assay (Promega) according to the manufacturer’s protocol. Briefly, 15,000 cells/well of Tzm-bl were exposed to serial diluition of the drug and after 48 h, cell viability was calculated by measuring cellular ATP through a luciferase-based chemical reaction. […]
READOUT_LABEL: CC50 at 48 h (µM)
Dear colleague, please return just the value in µM, with no unit written.

GET /values?readout=CC50 at 48 h&item= CC#CC#C/C=C1/O[C@@]2(OC=C[C@H]2OC(C)=O)[C@@H](O)[C@@H]1Cl 50
